- assayed system: T1, 4H3446-AA
- T1 chain: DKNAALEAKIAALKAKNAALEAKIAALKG
- assay text: two-hybrid library CCmax;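 further: natural log of median RNA to DNA barcode read ratio; higher means stronger binding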
- cond: mean of both orientations
quantity name: interaction score

binder	interaction score
DKIAALKAENAALEAENAALKAEIAALEG [4H2713-AA]	-1.15

[1] DKNAALEAKIAALKAENAALKAEIAALEG [4H3417-AA]
[2] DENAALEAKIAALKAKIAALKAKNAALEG [4H1391-AA]
[3] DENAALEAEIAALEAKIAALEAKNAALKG [4H1064-AA]
### Prompt Rank the items in ascending order with respect to interaction score. Respond with the label ranking, as requested.
### Response 2, 3, 1
